B1: library; a variant is named by its letters at N, in order (parent)
chain: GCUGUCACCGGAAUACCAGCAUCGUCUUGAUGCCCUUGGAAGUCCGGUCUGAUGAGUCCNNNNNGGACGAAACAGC

variants of: B1; assay: FACS-Seq fitted mean relative fluorescence mCherry/BFP with ligand (log10 relative fluorescence); ligand concentration (+) FACS-Seq: 1 mM; higher = higher reporter protein expression; details: HEK293T, ligand present: yes
Decision: FACS-Seq fitted mean (log10) >= 0.9 yields Condition met, all other cases yield Condition not met.

• GCUGUCACCGGAAUACCAGCAUCGUCUUGAUGCCCUUGGAAGUCCGGUCUGAUGAGUCCAUAUGGGACGAAACAGC [AUAUG] = Condition met
• GCUGUCACCGGAAUACCAGCAUCGUCUUGAUGCCCUUGGAAGUCCGGUCUGAUGAGUCCAGCUCGGACGAAACAGC [AGCUC] = Condition not met
• GCUGUCACCGGAAUACCAGCAUCGUCUUGAUGCCCUUGGAAGUCCGGUCUGAUGAGUCCACCACGGACGAAACAGC [ACCAC] = Condition met
• GCUGUCACCGGAAUACCAGCAUCGUCUUGAUGCCCUUGGAAGUCCGGUCUGAUGAGUCCCCCAAGGACGAAACAGC [CCCAA] = Condition not met
• GCUGUCACCGGAAUACCAGCAUCGUCUUGAUGCCCUUGGAAGUCCGGUCUGAUGAGUCCGCAGUGGACGAAACAGC [GCAGU] = Condition not met
• GCUGUCACCGGAAUACCAGCAUCGUCUUGAUGCCCUUGGAAGUCCGGUCUGAUGAGUCCCACGCGGACGAAACAGC [CACGC] = Condition met
• GCUGUCACCGGAAUACCAGCAUCGUCUUGAUGCCCUUGGAAGUCCGGUCUGAUGAGUCCACGAUGGACGAAACAGC [ACGAU] = Condition not met
• GCUGUCACCGGAAUACCAGCAUCGUCUUGAUGCCCUUGGAAGUCCGGUCUGAUGAGUCCUCGGUGGACGAAACAGC [UCGGU] = Condition not met
• GCUGUCACCGGAAUACCAGCAUCGUCUUGAUGCCCUUGGAAGUCCGGUCUGAUGAGUCCAUUGAGGACGAAACAGC [AUUGA] = Condition not met
• GCUGUCACCGGAAUACCAGCAUCGUCUUGAUGCCCUUGGAAGUCCGGUCUGAUGAGUCCUCAAGGGACGAAACAGC [UCAAG] = Condition met
• GCUGUCACCGGAAUACCAGCAUCGUCUUGAUGCCCUUGGAAGUCCGGUCUGAUGAGUCCCUCUAGGACGAAACAGC [CUCUA] = Condition met
• GCUGUCACCGGAAUACCAGCAUCGUCUUGAUGCCCUUGGAAGUCCGGUCUGAUGAGUCCAAGUAGGACGAAACAGC [AAGUA] = Condition not met
• GCUGUCACCGGAAUACCAGCAUCGUCUUGAUGCCCUUGGAAGUCCGGUCUGAUGAGUCCCAUGUGGACGAAACAGC [CAUGU] = Condition not met
• GCUGUCACCGGAAUACCAGCAUCGUCUUGAUGCCCUUGGAAGUCCGGUCUGAUGAGUCCCCAGAGGACGAAACAGC [CCAGA] = Condition not met
• GCUGUCACCGGAAUACCAGCAUCGUCUUGAUGCCCUUGGAAGUCCGGUCUGAUGAGUCCAAAUAGGACGAAACAGC [AAAUA] = Condition not met
• GCUGUCACCGGAAUACCAGCAUCGUCUUGAUGCCCUUGGAAGUCCGGUCUGAUGAGUCCAGUGGGGACGAAACAGC [AGUGG] = Condition not met
• GCUGUCACCGGAAUACCAGCAUCGUCUUGAUGCCCUUGGAAGUCCGGUCUGAUGAGUCCCGUUCGGACGAAACAGC [CGUUC] = Condition met
• GCUGUCACCGGAAUACCAGCAUCGUCUUGAUGCCCUUGGAAGUCCGGUCUGAUGAGUCCAUUUAGGACGAAACAGC [AUUUA] = Condition not met
• GCUGUCACCGGAAUACCAGCAUCGUCUUGAUGCCCUUGGAAGUCCGGUCUGAUGAGUCCGAUUGGGACGAAACAGC [GAUUG] = Condition not met
• GCUGUCACCGGAAUACCAGCAUCGUCUUGAUGCCCUUGGAAGUCCGGUCUGAUGAGUCCAGAAGGGACGAAACAGC [AGAAG] = Condition not met
• GCUGUCACCGGAAUACCAGCAUCGUCUUGAUGCCCUUGGAAGUCCGGUCUGAUGAGUCCCCGGAGGACGAAACAGC [CCGGA] = Condition met
• GCUGUCACCGGAAUACCAGCAUCGUCUUGAUGCCCUUGGAAGUCCGGUCUGAUGAGUCCUGAACGGACGAAACAGC [UGAAC] = Condition met
• GCUGUCACCGGAAUACCAGCAUCGUCUUGAUGCCCUUGGAAGUCCGGUCUGAUGAGUCCCUCUCGGACGAAACAGC [CUCUC] = Condition not met
• GCUGUCACCGGAAUACCAGCAUCGUCUUGAUGCCCUUGGAAGUCCGGUCUGAUGAGUCCCCCUUGGACGAAACAGC [CCCUU] = Condition met
• GCUGUCACCGGAAUACCAGCAUCGUCUUGAUGCCCUUGGAAGUCCGGUCUGAUGAGUCCGACAUGGACGAAACAGC [GACAU] = Condition not met
• GCUGUCACCGGAAUACCAGCAUCGUCUUGAUGCCCUUGGAAGUCCGGUCUGAUGAGUCCAAGCGGGACGAAACAGC [AAGCG] = Condition not met
• GCUGUCACCGGAAUACCAGCAUCGUCUUGAUGCCCUUGGAAGUCCGGUCUGAUGAGUCCAGAGCGGACGAAACAGC [AGAGC] = Condition not met
• GCUGUCACCGGAAUACCAGCAUCGUCUUGAUGCCCUUGGAAGUCCGGUCUGAUGAGUCCCAUUUGGACGAAACAGC [CAUUU] = Condition met
• GCUGUCACCGGAAUACCAGCAUCGUCUUGAUGCCCUUGGAAGUCCGGUCUGAUGAGUCCAAGCAGGACGAAACAGC [AAGCA] = Condition not met
• GCUGUCACCGGAAUACCAGCAUCGUCUUGAUGCCCUUGGAAGUCCGGUCUGAUGAGUCCAAGGUGGACGAAACAGC [AAGGU] = Condition not met
• GCUGUCACCGGAAUACCAGCAUCGUCUUGAUGCCCUUGGAAGUCCGGUCUGAUGAGUCCUUCUUGGACGAAACAGC [UUCUU] = Condition not met
• GCUGUCACCGGAAUACCAGCAUCGUCUUGAUGCCCUUGGAAGUCCGGUCUGAUGAGUCCGAAUGGGACGAAACAGC [GAAUG] = Condition not met
• GCUGUCACCGGAAUACCAGCAUCGUCUUGAUGCCCUUGGAAGUCCGGUCUGAUGAGUCCCAUGCGGACGAAACAGC [CAUGC] = Condition not met
• GCUGUCACCGGAAUACCAGCAUCGUCUUGAUGCCCUUGGAAGUCCGGUCUGAUGAGUCCUUCGUGGACGAAACAGC [UUCGU] = Condition met
• GCUGUCACCGGAAUACCAGCAUCGUCUUGAUGCCCUUGGAAGUCCGGUCUGAUGAGUCCAAUCGGGACGAAACAGC [AAUCG] = Condition met
• GCUGUCACCGGAAUACCAGCAUCGUCUUGAUGCCCUUGGAAGUCCGGUCUGAUGAGUCCAUAAUGGACGAAACAGC [AUAAU] = Condition not met
• GCUGUCACCGGAAUACCAGCAUCGUCUUGAUGCCCUUGGAAGUCCGGUCUGAUGAGUCCAUGACGGACGAAACAGC [AUGAC] = Condition not met
• GCUGUCACCGGAAUACCAGCAUCGUCUUGAUGCCCUUGGAAGUCCGGUCUGAUGAGUCCAUCUUGGACGAAACAGC [AUCUU] = Condition not met
• GCUGUCACCGGAAUACCAGCAUCGUCUUGAUGCCCUUGGAAGUCCGGUCUGAUGAGUCCCAUAAGGACGAAACAGC [CAUAA] = Condition not met
• GCUGUCACCGGAAUACCAGCAUCGUCUUGAUGCCCUUGGAAGUCCGGUCUGAUGAGUCCCAGUAGGACGAAACAGC [CAGUA] = Condition not met
• GCUGUCACCGGAAUACCAGCAUCGUCUUGAUGCCCUUGGAAGUCCGGUCUGAUGAGUCCGCCAUGGACGAAACAGC [GCCAU] = Condition not met
• GCUGUCACCGGAAUACCAGCAUCGUCUUGAUGCCCUUGGAAGUCCGGUCUGAUGAGUCCCCGCCGGACGAAACAGC [CCGCC] = Condition met
• GCUGUCACCGGAAUACCAGCAUCGUCUUGAUGCCCUUGGAAGUCCGGUCUGAUGAGUCCUAUUCGGACGAAACAGC [UAUUC] = Condition not met
• GCUGUCACCGGAAUACCAGCAUCGUCUUGAUGCCCUUGGAAGUCCGGUCUGAUGAGUCCAUAAAGGACGAAACAGC [AUAAA] = Condition not met
